molecular target: T1, Sulfotyrosine D6 biotin peptide (human); test: ELISA, 50 nM mAb
T1 construct: also called D6 peptide
T1 peptide: ENSSFY[sY][sY]D[sY]LDEVAFGGK(Biotin)
Non-standard residues stand in square brackets, D forms with d. No end group written: not given here. *: point of attachment. Biotin = O=C1N[C@H]2[C@H](CS[C@H]2CCCCC(=O)*)N1; sY = N[C@@H](Cc1ccc(OS(=O)(=O)O)cc1)C(=O)O
What binding normalized to PSGL-1 was measured for each of the following?

Just so you know, measured binding normalized to PSGL-1 for 09D04 (antibody, IgG4, V domains shown) VH: QVQLQQSGGGLVQPGGSLTLSCVGSGFDFRSYAMSWVRQAPGKGLEWVSGINNSGSKTYYADFVKGRFSVSRDNSKNIVWLRMRSLRAEDTAVYYCARRTFGPPHAWGQGTMVTVSS VL: DVVMTQSPLSLPVTPGEPASISCRSSQSLLHSNGYTYLEWYLHKPGQSPQLLIYLGSNRASGVPDRFSGSGSGTDFTLKISRVEAEDVGVYYCMHSLHIPFTFGPGTKVDIK came out at 0.75

Just so you know, measured binding normalized to PSGL-1 for 09C10 (antibody, V domains shown) VH: EVKLLESGGGLIQPGGSLRLSCAASGFTVSNNYVTWVRQAPGKGLELVSSIYSGGGTYYADSVKGRFTISRDNSKNTVYLQMNSLRADDTAVYYCARNVPVTNFGYWGQGTLVTVSS VL: DIVMTQSPLSLPVTLGQPASISCRSSQSLVYRDGNTYLNWFQQRPGQSPRRLIYKVSNRDSGVPDRFSGSGSGTDFTLKISRVEAEDVGVYYCMQLTHWPPGFAQGTKLEIK came out at 1.2

Just so you know, measured binding normalized to PSGL-1 for 03B04 (antibody, IgG4, V domains shown) VH: EVKLLESGGGLVKPGGSLRLSCAASGFAFSRYTMNWVRQAPGKGLEWVSSISSSSSYIYYADSVKGRFTISRDNAKNSLVLQMNSLRPEDTAVYYCARGGIAANDYWGQGTLVTVSS VL: EIVMTQTPLSLPVTLGQPASISCRSSRNLVHYDGNTYLSWFHQRPGQPPRRLIYKISNRESGVPDRFSGSGSGTDFTLKISRVEAEDVGVYYCLQHTHWPWTFGPGTKVEIK came out at 0.42

Just so you know, measured binding normalized to PSGL-1 for 06A07 (antibody, IgG4, V domains shown) VH: QVQLVQSGPELKNPGASVKVSCKASGYSFTNFYINWVRQAPGRGLEWVGWISPNNGNTHYARNLQGRVTMTTDTSTNTAYLELKNLRSDDTAIYFCGRSVSMGYWGQGTLVTVSS VL: LPVLTQPPSVSKGLRQTATLTCTGNSKNVGNQGAAWLQQHQGQPPKLLSYRNNNRPSGISERFSASRSGNTASLTITGLQPEDEADYYCSAWDSSLSAQVFGGGTKLTVL came out at 0.68

Just so you know, measured binding normalized to PSGL-1 for 5E12 (antibody, V domains shown, Mouse hybridoma mAb; only variable domains given) VH: EIQLQQSGAELVRPGASVKLSCTASGFNIKDDYIHWVKQRPEQGLEWIGRIDPANGNTKSAPKFQDKATITADTSSNTAYLHLSSLTSEDTAVYYCSIRFAYWGQGTLVTVSA VL: DVVMTQTPLSLSVSLGDQASISCRSSQSLVYRNGDTYLHWFLQKPGQSPKLLIYKVSNRFSGVPDRFSGSGSGTDFTLKISRVEAEDLGIYFCSQNTHVPYTFGGGTKLEIK came out at 0.03
